The measured values listed here are drawn from ChEMBL document CHEMBL4513216.

# TEST_NAME: Toxicity liver stage against HepG2, at 10uM
# Assay type: cell-based
# Design: test concentration 10 uM, cell line HepG2-A16-CD81EGFP
# CONDITION_SET: human, HepG2-A16-CD81EGFP cells; read-out: INHIBITION
Hi there, I'd appreciate the recorded cytotoxicity at 10 µM for every entry that follows.
Numbers only, in %.

The cases that follow already have their cytotoxicity at 10 µM on record.
> print(dat)
                                   compound            result.type  units.symbol  quantitative.readout
1  CN(C)S(=O)(=O)N1CCCC(c2cccc(Cc3ccccc3)n2)C1 (configuration not stated)  cytotoxicity at 10 µM             %                  20.5
2      O=C(NCc1ccc(OCC2CC2)nc1)c1c(F)cccc1F  cytotoxicity at 10 µM             %                  1.49
3  Cc1ccc(NC2CCN(C(=O)c3c(C)oc(C)c3C)CC2)nn1  cytotoxicity at 10 µM             %                  -2.4
4  Cc1c(C(=O)N2CCNC(=O)C2)sc2nc[nH]c(=O)c12  cytotoxicity at 10 µM             %                 0.709
5   Cc1c(C(=O)N2CC(O)C2)nnn1-c1cccc2cnccc12  cytotoxicity at 10 µM             %                  3.04

Give cytotoxicity at 10 µM for all compounds that follow.
1. Cc1ccc(OCC(C)NS(C)(=O)=O)cc1C (configuration not stated)
2. Nc1nc(N)c2c(n1)OC1(CCN(C(=O)CC3CCNCC3)CC1)C2
3. CCc1nccn1CCC(=O)N1CCOC(c2ccc(F)cc2)C1 (configuration not stated)
4. O=C(O)c1ccc(S(=O)(=O)Nc2ccccc2CC(F)(F)F)c(F)c1
5. CCN(Cc1ccoc1)C(=O)NC1CCN(CC2CCCC2)CC1

(A)
9.98
5.41
-12.5
6.02
-6.11

Give cytotoxicity at 10 µM for all compounds that follow.
1. CN(Cc1ccncc1)Cc1nccn1Cc1ccccc1
2. CCOc1cc(C)nc(N2CCN(C(=O)c3csnn3)CC2)n1

(A)
[12.5, 2.85]

* * *

# TEST_NAME: Toxicity liver stage against HepG2, at 10uM
# Assay type: cell-based
# Set-up: test concentration 10 uM, cell line HepG2-A16-CD81EGFP
# CONDITION_SET: human, HepG2-A16-CD81EGFP cells; read-out: INHIBITION
Hi there, I'd appreciate the recorded cytotoxicity at 10 µM for every entry that follows.
Give bare numbers, in %.

The cases that follow already have their cytotoxicity at 10 µM on record.
> print(dat)
                                   molecule            result.type  quantitative.readout
1  Cc1nc[nH]c1CN(Cc1ccccc1F)C1CC(C)(C)NC(C)(C)C1  cytotoxicity at 10 µM                 -3.41
2  O=C(C1CCOC1)N1CCC(OCc2ccccc2)CC1 (centres undefined)  cytotoxicity at 10 µM                  3.15
3    CCCN1CCC(NC(=O)c2csc(C)c2-c2ccccc2)CC1  cytotoxicity at 10 µM                  -133
4  Cc1cnn(CCNC(C)C(=O)Nc2ccc(Cl)cn2)c1 (centres undefined)  cytotoxicity at 10 µM                 0.858
5  O=C(NCc1cccc(Cl)c1)C1=NOC2(CCNC2)C1 (centres undefined)  cytotoxicity at 10 µM               -0.0606
6  CCOCC1CN(C(=O)c2ccncc2)Cc2nn(C)cc21 (centres undefined)  cytotoxicity at 10 µM                 -5.82
7  CC(C)c1cc(NC(=O)CN2CCc3c(nc(C(C)C)n3C)C2)on1  cytotoxicity at 10 µM                 -12.3
8              CC1CCN(CCNC(=O)c2scnc2Cl)CC1  cytotoxicity at 10 µM                  -4.2

Give cytotoxicity at 10 µM for all molecules that follow.
1. Cc1cc(C(=O)N2CCC3(CCN3Cc3ccc(F)cc3)C2)no1 (centres undefined)
2. O=C(Cc1ccccc1)N1CCCC2(COCCN(CC3CC3)C2)C1 (centres undefined)

(A)
4.29
-1.03

Give cytotoxicity at 10 µM for all molecules that follow.
1. CCCNC(c1cccnc1)c1ccc(F)cc1F (centres undefined)
2. NC(=O)C1CN(C(=O)Nc2ccccc2OCC(F)(F)F)CCO1 (centres undefined)

(A)
-2
-7.75

Give cytotoxicity at 10 µM for all molecules that follow.
1. COCCOc1cc(C(=O)N2CC(C)c3ccccc32)ccn1 (centres undefined)
2. O=C(c1cocn1)N1CC[C@H]2OCC[C@@]2(COc2ncccc2F)C1
3. COc1ccccc1OC1(C(=O)O)CCN(c2cnccn2)CC1
4. NC(=O)COc1ccc(C2NC(=O)CN2Cc2ccc(Br)cc2)cc1 (centres undefined)
5. COc1c(C)cnc(CNC(=O)c2cnc3onc(C)c3c2)c1C
6. Cc1ccc(N(C)[C@@H]2CC[C@@H]3CN(C(=O)Cc4cccs4)C[C@@H]32)nn1

(A)
1: 2.16; 2: -127; 3: -27.5; 4: -7.38; 5: 26.3; 6: -13.5

* * *

# TEST_NAME: Toxicity liver stage against HepG2, at 10uM
# Format: cell-based
# Parameters: test concentration 10 uM, cell line HepG2-A16-CD81EGFP
# CONDITION_SET: human, HepG2-A16-CD81EGFP cells; read-out: INHIBITION
RESULT_TYPE: cytotoxicity at 10 µM
# answer = value followed by unit

The cases that follow already have their cytotoxicity at 10 µM on record.
> print(dat)
                                   molecule  result
1  CC(=O)N1[C@H](CN(C)C)C[C@@H]2CN(C(=O)c3cncc(C)c3)CC[C@@H]21   3.76%
2    CC(=O)c1cnc(NCCc2csc(-c3cnccn3)n2)nc1C   6.09%

Give cytotoxicity at 10 µM for all molecules that follow.
1. CC(=O)NCCC(=O)NCc1cccnc1-n1cnc2ccccc21
2. CN(C)C1Cc2ccccc2N(S(=O)(=O)c2cccc(C#N)c2)C1 (stereo unspecified)
3. O=C(NCc1ccccc1CN1CCCC1=O)Nc1nccs1
4. COCCNC(=O)c1nc2c(s1)CCCN2c1ccc(C)nn1
5. O=C(CCc1ccc(Br)cc1)NCCc1nnc[nH]1
6. CCOC(=O)N1CC(=O)N(CCc2ccccc2)CC(O)C1 (stereo unspecified)
7. COC(=O)CC(c1cccs1)c1oc(C)cc(=O)c1O (stereo unspecified)
8. CC(=O)Nc1ccc2c(c1)nc1n2[C@@H](CNCc2ccccc2)COC1

(A)
1: -14.2%; 2: 9.89%; 3: 9.66%; 4: 8.33%; 5: 2.7%; 6: -4.73%; 7: 2.99%; 8: -10.2%

(Q) # get_value(readout='cytotoxicity at 10 µM', item= CC(CNS(=O)(=O)c1cccc(Cl)c1)N1CCN(C)CC1 (stereo unspecified) )
(A) 9.26%

* * *

# TEST_NAME: Toxicity liver stage against HepG2, at 10uM
# Format: cell-based
# Parameters: test concentration 10 uM, cell line HepG2-A16-CD81EGFP
# CONDITION_SET: human, HepG2-A16-CD81EGFP cells; read-out: INHIBITION
RESULT_TYPE: cytotoxicity at 10 µM (%)
Numbers only, in %.

The cases that follow already have their cytotoxicity at 10 µM on record.
> print(dat)
                                    compound  quantitative.readout
 1  Cc1ccc(-c2nnc(C(C)N3CCc4cncnc4C3)o2)cc1 (stereo not drawn)                 0.776
 2          CCOCCC(=O)N1CC(=O)Nc2cc(Br)ccc21                  6.87
 3  Cc1nnc(SCC(=O)NCc2ccc3c(c2)CCC(=O)N3)n1C                  9.73
 4  O=c1ccc2c(n1Cc1ccncc1)CCN(C1CCOC1)CC2 (stereo not drawn)                 -1.31
 5  Cc1nsc(NC(=O)N2CCCC2C)n1 (stereo not drawn)                 -38.7
 6  CCNc1cc2c(nn1)CCN(C(=O)C1COc3ccccc3C1)C2 (stereo not drawn)                 -4.83
 7   CN(Cc1cccc(C#N)c1)Cn1nc(C(C)(C)C)ccc1=O                 -1.64
 8  Cc1cc(C2CCCN2CCC(=O)N2CCc3sccc3C2)no1 (stereo not drawn)                 -16.1
 9  CN(Cc1ccc([S+](C)[O-])cc1)c1ccc(Br)cn1 (stereo not drawn)                  11.8
10  Cc1cnn(CC2CCCN2C(=O)c2ccc3c(c2)nnn3C)c1 (stereo not drawn)                  18.4

Give cytotoxicity at 10 µM for all compounds that follow.
1. CN(Cc1ccc([S+](C)[O-])cc1)c1cncc(Cl)n1 (stereo not drawn)
2. Cc1csc(C2CCCCN2C(=O)c2c[nH]c(C)n2)n1 (stereo not drawn)
3. Cc1cccc(N(C)Cc2cc(=O)n3oc(C)cc3n2)c1
4. Cn1cnc2c1C(COCc1ccccc1)N(Cc1ccccn1)CC2 (stereo not drawn)
5. COc1ccc(C(CO)NC(=O)Nc2cccc(F)c2)cc1 (stereo not drawn)
6. Cc1ccc(C)c(CC(=O)NC2CCC(N3C(=O)CCC3=O)CC2)c1 (stereo not drawn)
7. CC1(C)CN(CC(F)(F)F)CCN1CC(=O)NC1CCCC1
8. CCn1cc(S(=O)(=O)N2CCN(S(=O)(=O)c3ccc(Br)s3)CC2)cn1

(A)
1: -10.6; 2: -33.7; 3: 0.14; 4: 9.82; 5: -4.82; 6: -1.32; 7: 10.4; 8: 6.24

Give cytotoxicity at 10 µM for all compounds that follow.
1. COc1ccc2[nH]cc(C(=O)N3C[C@@H](O)[C@H](N4CCOCC4)C3)c2c1
2. COc1ccc(-n2cc(CCO)cn2)cc1C(N)=O
3. CN(C)c1nccc(N(C)C2CCCCC2)n1
4. O=C(CC1CCN(c2cccnn2)CC1)Nc1cccnc1
5. Cc1ccccc1CN1CCOC(c2nccc(CN(C)C)n2)C1 (stereo not drawn)
6. CN(CCc1cn[nH]c1)C(=O)CCc1ccc(Cl)cc1

(A)
[-9.06, 5.97, -6.37, 3.72, -9.19, 1.82]
